# target.entity: KR (a functional domain of FAS) (Gallus gallus)
# Construct: The purification, storage, and application of the chicken liver FAS were conducted following established procedures
# Sequence (P12276 whole entry, the tested form may be a part): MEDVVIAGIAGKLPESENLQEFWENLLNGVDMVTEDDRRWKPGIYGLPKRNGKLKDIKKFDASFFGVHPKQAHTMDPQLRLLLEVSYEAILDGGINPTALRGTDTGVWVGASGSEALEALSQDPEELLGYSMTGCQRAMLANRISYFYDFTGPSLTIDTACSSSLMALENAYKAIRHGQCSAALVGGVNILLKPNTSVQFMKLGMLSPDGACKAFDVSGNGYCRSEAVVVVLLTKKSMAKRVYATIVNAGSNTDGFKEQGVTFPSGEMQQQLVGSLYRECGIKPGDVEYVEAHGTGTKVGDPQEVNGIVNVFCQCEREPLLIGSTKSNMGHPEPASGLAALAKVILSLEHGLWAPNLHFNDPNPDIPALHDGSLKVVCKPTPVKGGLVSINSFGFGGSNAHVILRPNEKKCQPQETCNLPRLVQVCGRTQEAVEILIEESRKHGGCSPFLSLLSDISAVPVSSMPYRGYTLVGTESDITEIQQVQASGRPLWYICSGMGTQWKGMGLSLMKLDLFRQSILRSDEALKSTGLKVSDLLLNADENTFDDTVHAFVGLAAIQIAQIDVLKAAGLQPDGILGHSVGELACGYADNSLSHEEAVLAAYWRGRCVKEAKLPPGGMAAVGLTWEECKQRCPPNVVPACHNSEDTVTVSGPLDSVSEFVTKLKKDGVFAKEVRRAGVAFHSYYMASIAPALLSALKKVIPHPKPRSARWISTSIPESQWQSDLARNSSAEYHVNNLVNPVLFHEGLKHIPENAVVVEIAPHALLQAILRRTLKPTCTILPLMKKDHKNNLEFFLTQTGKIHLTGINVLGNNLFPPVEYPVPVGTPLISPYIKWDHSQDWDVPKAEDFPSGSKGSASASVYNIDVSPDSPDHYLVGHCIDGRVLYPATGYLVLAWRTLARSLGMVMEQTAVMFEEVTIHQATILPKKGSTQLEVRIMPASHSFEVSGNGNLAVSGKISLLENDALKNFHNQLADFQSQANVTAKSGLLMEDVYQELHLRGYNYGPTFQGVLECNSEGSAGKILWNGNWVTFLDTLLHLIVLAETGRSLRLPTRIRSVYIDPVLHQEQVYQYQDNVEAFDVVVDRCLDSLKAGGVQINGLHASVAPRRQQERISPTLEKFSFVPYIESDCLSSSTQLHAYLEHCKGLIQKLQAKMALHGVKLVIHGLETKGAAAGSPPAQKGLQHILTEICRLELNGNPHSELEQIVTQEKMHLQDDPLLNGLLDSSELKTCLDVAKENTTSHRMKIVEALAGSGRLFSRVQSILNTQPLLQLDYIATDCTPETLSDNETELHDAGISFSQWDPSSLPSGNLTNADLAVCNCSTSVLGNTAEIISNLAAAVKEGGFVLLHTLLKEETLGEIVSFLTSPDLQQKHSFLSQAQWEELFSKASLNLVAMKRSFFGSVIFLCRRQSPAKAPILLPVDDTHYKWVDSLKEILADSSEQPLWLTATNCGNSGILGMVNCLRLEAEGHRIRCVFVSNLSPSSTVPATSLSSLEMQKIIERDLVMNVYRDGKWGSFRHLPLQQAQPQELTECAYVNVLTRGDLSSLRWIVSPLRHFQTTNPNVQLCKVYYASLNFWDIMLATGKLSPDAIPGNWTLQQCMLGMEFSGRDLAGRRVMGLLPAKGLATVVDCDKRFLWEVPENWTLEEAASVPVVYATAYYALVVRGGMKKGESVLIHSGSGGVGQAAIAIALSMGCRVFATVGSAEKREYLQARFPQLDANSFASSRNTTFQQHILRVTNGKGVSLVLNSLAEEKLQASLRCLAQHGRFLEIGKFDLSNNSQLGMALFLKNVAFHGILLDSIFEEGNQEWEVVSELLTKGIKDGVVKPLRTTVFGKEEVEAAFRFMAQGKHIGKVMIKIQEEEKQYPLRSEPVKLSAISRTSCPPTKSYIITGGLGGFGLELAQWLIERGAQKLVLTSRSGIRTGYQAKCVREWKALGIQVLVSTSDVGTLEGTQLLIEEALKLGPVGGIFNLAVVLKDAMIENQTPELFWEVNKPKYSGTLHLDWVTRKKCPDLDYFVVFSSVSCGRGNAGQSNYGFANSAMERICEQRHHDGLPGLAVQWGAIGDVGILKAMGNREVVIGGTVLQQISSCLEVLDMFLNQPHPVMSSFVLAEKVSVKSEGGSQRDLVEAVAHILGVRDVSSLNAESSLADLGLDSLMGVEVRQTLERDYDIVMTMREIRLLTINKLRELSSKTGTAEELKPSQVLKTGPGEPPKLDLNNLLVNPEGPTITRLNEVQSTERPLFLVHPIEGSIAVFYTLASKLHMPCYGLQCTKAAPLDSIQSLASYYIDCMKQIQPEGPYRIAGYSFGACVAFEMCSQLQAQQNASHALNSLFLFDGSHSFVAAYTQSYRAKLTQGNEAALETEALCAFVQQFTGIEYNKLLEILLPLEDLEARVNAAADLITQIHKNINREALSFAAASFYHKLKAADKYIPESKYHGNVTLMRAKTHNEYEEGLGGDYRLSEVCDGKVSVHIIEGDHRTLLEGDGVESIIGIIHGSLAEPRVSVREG
# procedure.details: KR reaction of FAS, fast-binding inhibition (ethyl acetoacetate, NADPH)
property.name: pIC50
Numbers only, as −log10 of the molar value.

Lookup result for COc1cc(C2c3c(cc(OC)c(O)c3OC)CC(CO)C2COC2OC(C)C(O)C(O)C2O)cc(OC)c1O (stereo not drawn) [LR, lyoniresinol-3α-O-β-rhamnopyranoside] ; measured pIC50: 4.25
